Hi there, I'd appreciate the recorded MIC for every entry that follows.
tested on: K. pneumoniae 7; assay: MIC, two-fold plate dilution method; assay type: cell-based; settings: K. pneumoniae 7, Gram-negative; Muener-Hinton medium
Give bare numbers, in µg/mL.

As a guide, the following entries are already answered.
Cl.O=C(O)c1cn(C2CC2)c2c(OC(F)F)c(N3C[C@H]4CCCN[C@H]4C3)c(F)cc2c1=O
0.03
Cl.O=C(O)c1cn(C2CC2)c2c(OC(F)F)c(N3C[C@@H]4CCCN[C@@H]4C3)c(F)cc2c1=O [Embodiment 13]
0.015
COc1c(N2C[C@@H]3CCCN[C@@H]3C2)c(F)cc2c(=O)c(C(=O)O)cn(C3CC3)c12 [Moxifloxacin, moxifloxacin, reference compound]
0.03

I'm hoping you can list MIC for every compound here, please.
1. Nc1c(F)c(N2C[C@@H]3CCCN[C@@H]3C2)c(OC(F)F)c2c1c(=O)c(C(=O)O)cn2C1CC1 (relative stereo)
2. Cl.Nc1c(F)c(N2C[C@@H]3CCCN[C@@H]3C2)c(OC(F)F)c2c1c(=O)c(C(=O)O)cn2C1CC1
3. Cl.Nc1c(F)c(N2C[C@H]3CCCN[C@H]3C2)c(OC(F)F)c2c1c(=O)c(C(=O)O)cn2C1CC1
4. Cl.O=C(O)c1cn(C2CC2)c2c(OC(F)F)c(N3C[C@@H]4CCCN[C@@H]4C3)c(F)cc2c1=O (relative stereo) [Embodiment 15]

Ans:
0.015
0.015
0.015
0.03

* * *

tested on: Enterococcus 755; experiment: MIC, two-fold plate dilution method; assay type: cell-based; details: Enterococcus 755, Gram-positive; Muener-Hinton medium
Hi there, I'd appreciate the recorded MIC for every entry that follows.
One number for each entry, in µg/mL.

Cl.Nc1c(F)c(N2C[C@@H]3CCCN[C@@H]3C2)c(OC(F)F)c2c1c(=O)c(C(=O)O)cn2C1CC1
0.015
COc1c(N2C[C@@H]3CCCN[C@@H]3C2)c(F)cc2c(=O)c(C(=O)O)cn(C3CC3)c12 [Moxifloxacin, moxifloxacin, reference compound]
0.5
Cl.O=C(O)c1cn(C2CC2)c2c(OC(F)F)c(N3C[C@H]4CCCN[C@H]4C3)c(F)cc2c1=O
0.25
Cl.O=C(O)c1cn(C2CC2)c2c(OC(F)F)c(N3C[C@@H]4CCCN[C@@H]4C3)c(F)cc2c1=O (relative stereo) [Embodiment 15]
0.25
Cl.O=C(O)c1cn(C2CC2)c2c(OC(F)F)c(N3C[C@@H]4CCCN[C@@H]4C3)c(F)cc2c1=O [Embodiment 13]
0.25
Cl.Nc1c(F)c(N2C[C@H]3CCCN[C@H]3C2)c(OC(F)F)c2c1c(=O)c(C(=O)O)cn2C1CC1
0.06

Q: Requested field: MIC. Item: Nc1c(F)c(N2C[C@@H]3CCCN[C@@H]3C2)c(OC(F)F)c2c1c(=O)c(C(=O)O)cn2C1CC1 (relative stereo)
Ans: 0.25

* * *

# MIC per entry for P. aeruginosa 17
One number for each entry, in µg/mL.

As a guide, the following entries are already answered.
COc1c(N2C[C@@H]3CCCN[C@@H]3C2)c(F)cc2c(=O)c(C(=O)O)cn(C3CC3)c12 [Moxifloxacin, moxifloxacin, reference compound]
0.5
Nc1c(F)c(N2C[C@@H]3CCCN[C@@H]3C2)c(OC(F)F)c2c1c(=O)c(C(=O)O)cn2C1CC1 (relative stereo)
0.25

Shifting focus to the compound that follows.
Q: Requested field: MIC. Item: Cl.Nc1c(F)c(N2C[C@@H]3CCCN[C@@H]3C2)c(OC(F)F)c2c1c(=O)c(C(=O)O)cn2C1CC1
Ans: 0.25
